Reference source for all entries: patent US8367666B2

Assign inhibition in vivo at 3 % to each entry below.
- Tested on: scratching action induced by Compound 48/80
- Assay name: Anti-pruritic activity test by application (Compound 48/80 scratching)
- Type: in vivo, mouse (Crj:CD-1 (ICR))
- Assay setup: Mus musculus, topical, read-out: Itching inhibition ratio % (Concentration %)
Numbers only, in %.

{"Compound": "CC(C)NC(=O)N1CCN(C(=O)C(C)(C)NC(=O)c2cc3c(n(CC4CCCCC4)c2=O)CCCCCC3)CC1", "Units symbol": "%", "inhibition in vivo at 3 %": 95}

Each compound below has a recorded value; state its inhibition in vivo at 3 %.
1. CC(C)(NC(=O)c1cc2c(n(CC3CCCCC3)c1=O)CCCCCC2)C(=O)NNS(C)(=O)=O
2. O=C(O)CC(NC(=O)c1cc2c(n(CC3CCCCC3)c1=O)CCCCCC2)C(F)(F)F (stereo not shown)
3. CC(C)C[C@@H](CC(=O)O)NC(=O)c1cc2c(n(Cc3ccc(F)cc3)c1=O)CCCCCC2
4. CCS(=O)(=O)NNC(=O)C(C)(C)NC(=O)c1cc2c(n(CC3CCCCC3)c1=O)CCCCCC2

[80, 86, 94, 60]

Each compound below has a recorded value; state its inhibition in vivo at 3 %.
1. CC(=O)N1CCN(C(=O)C(C)(C)NC(=O)c2cc3c(n(CC4CCCCC4)c2=O)CCCCCC3)CC1
2. CC(C)(NC(=O)c1cc2c(n(CC3CCCCC3)c1=O)CCCCCC2)C(=O)Nc1ccc(NS(C)(=O)=O)cc1

[99, 73]
